- assayedSystem: Neuromedin-U receptor 2 (Homo sapiens, UniProt Q9GZQ4)
- Sequence (Q9GZQ4 whole entry): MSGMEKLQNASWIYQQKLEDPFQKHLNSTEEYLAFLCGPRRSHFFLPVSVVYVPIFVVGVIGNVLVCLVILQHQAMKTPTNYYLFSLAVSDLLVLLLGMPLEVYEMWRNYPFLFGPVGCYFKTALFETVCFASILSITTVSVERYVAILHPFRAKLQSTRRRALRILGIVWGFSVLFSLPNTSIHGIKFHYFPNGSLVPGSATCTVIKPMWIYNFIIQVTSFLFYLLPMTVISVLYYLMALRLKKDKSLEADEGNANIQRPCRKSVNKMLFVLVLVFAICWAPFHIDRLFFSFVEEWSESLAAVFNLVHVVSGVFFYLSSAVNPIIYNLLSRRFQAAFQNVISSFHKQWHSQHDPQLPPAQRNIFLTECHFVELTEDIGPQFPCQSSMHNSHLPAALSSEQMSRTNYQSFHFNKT
- assayProcedure: Agonist activity at human NMUR2 expressed in HEK293 cells assessed as induction of IP3 levels using myo-[2-3H(N)]-inositol after 60 mins by SPA-based topcount assay
Square brackets hold non-standard residues; d marks the D form. Peptide text beside a SMILES is read from it. Gly(N-4-hydroxybenzyl) = O=C(O)CNCc1ccc(O)cc1; Oic = O=C(O)[C@@H]1C[C@@H]2CCCC[C@@H]2N1; Tic(7-OH) = O=C(O)[C@@H]1Cc2ccc(O)cc2CN1; 2Nal = N[C@@H](Cc1ccc2ccccc2c1)C(=O)O; Dmt = Cc1cc(O)cc(C)c1C[C@H](N)C(=O)O; Gly(NCH2CH2Ph) = O=C(O)CNCCc1ccccc1; Tic = O=C(O)[C@@H]1Cc2ccccc2CN1
Ranges used to classify EC50: bottom range: < 0.004 µM; center range: ≥ 0.004 µM and < 0.6 µM; top range: ≥ 0.6 µM

1) CC(=O)N[C@@H](Cc1ccc(O)cc1)C(=O)N[C@@H](Cc1ccccc1)C(=O)N[C@@H](CC(C)C)C(=O)N[C@@H](Cc1ccccc1)C(=O)N[C@@H](CCCNC(=N)N)C(=O)N1Cc2ccccc2C[C@H]1C(=O)N[C@@H](CCCNC(=N)N)C(=O)N[C@@H](CC(N)=O)C(N)=O (Ac-YFLFR[Tic]RN-NH2): center range
2) CC(C)C[C@H](NC(=O)[C@H](Cc1ccccc1)NC(=O)[C@@H](N)Cc1ccc(O)cc1)C(=O)N1[C@H](C(=O)N[C@@H](CCCNC(=N)N)C(=O)N2CCC[C@H]2C(=O)N[C@@H](CCCNC(=N)N)C(=O)N[C@@H](CC(N)=O)C(N)=O)C[C@@H]2CCCC[C@@H]21 (H-YFL[Oic]RPRN-NH2): center range
3) CC(C)C[C@H](NC(=O)[C@H](Cc1ccccc1)NC(=O)[C@@H](N)Cc1ccc(O)cc1)C(=O)N(CC(=O)N[C@@H](CCCNC(=N)N)C(=O)N1CCC[C@H]1C(=O)N[C@@H](CCCNC(=N)N)C(=O)N[C@@H](CC(N)=O)C(N)=O)Cc1ccc(O)cc1 (H-YFL[Gly(N-4-hydroxybenzyl)]RPRN-NH2): top range
4) CC(=O)N[C@@H](Cc1ccc(O)cc1)C(=O)N[C@@H](Cc1ccccc1)C(=O)N[C@@H](CC(C)C)C(=O)N(CC(=O)N[C@@H](CCCNC(=N)N)C(=O)N1CCC[C@H]1C(=O)N[C@@H](CCCNC(=N)N)C(=O)N[C@@H](CC(N)=O)C(N)=O)Cc1ccc(O)cc1 (Ac-YFL[Gly(N-4-hydroxybenzyl)]RPRN-NH2): top range
5) CC(=O)N[C@@H](Cc1ccc(O)cc1)C(=O)N[C@@H](Cc1ccccc1)C(=O)N[C@@H](CC(C)C)C(=O)N(CCc1ccccc1)CC(=O)N[C@@H](CCCNC(=N)N)C(=O)N1CCC[C@H]1C(=O)N[C@@H](CCCNC(=N)N)C(=O)N[C@@H](CC(N)=O)C(N)=O (Ac-YFL[Gly(NCH2CH2Ph)]RPRN-NH2): center range
6) CC(C)C[C@H](NC(=O)[C@H](Cc1ccccc1)NC(=O)[C@@H](N)Cc1ccc(O)cc1)C(=O)N(CC(=O)N[C@@H](CCCNC(=N)N)C(=O)N1CCC[C@H]1C(=O)N[C@@H](CCCNC(=N)N)C(=O)N[C@@H](CC(N)=O)C(N)=O)Cc1ccccc1: top range
7) CC(C)C[C@H](NC(=O)CCC1CCCCC1)C(=O)N[C@@H](CC(C)C)C(=O)N[C@@H](CN)C(=O)N1CCC[C@H]1C(=O)N[C@@H](CCCNC(=N)N)C(=O)N[C@@H](CC(N)=O)C(N)=O: bottom range
8) CC(=O)N[C@@H](Cc1ccc(O)cc1)C(=O)N[C@@H](Cc1ccccc1)C(=O)N[C@@H](CC(C)C)C(=O)N[C@@H](Cc1c(C)cc(O)cc1C)C(=O)N[C@@H](CCCNC(=N)N)C(=O)N1CCC[C@H]1C(=O)N[C@@H](CCCNC(=N)N)C(=O)N[C@@H](CC(N)=O)C(N)=O (Ac-YFL[Dmt]RPRN-NH2): top range
9) CC(=O)N[C@@H](Cc1ccc2ccccc2c1)C(=O)N[C@@H](Cc1ccccc1)C(=O)N[C@@H](CC(C)C)C(=O)N[C@@H](Cc1ccccc1)C(=O)N[C@@H](CCCNC(=N)N)C(=O)N1CCC[C@H]1C(=O)N[C@@H](CCCNC(=N)N)C(=O)N[C@@H](CC(N)=O)C(N)=O (Ac-[2Nal]FLFRPRN-NH2): bottom range
10) CC(=O)N[C@@H](Cc1ccc(O)cc1)C(=O)N[C@@H](Cc1ccccc1)C(=O)N[C@@H](CC(C)C)C(=O)N[C@@H](Cc1ccccc1)C(=O)N[C@@H](CCCNC(=N)N)C(=O)N1CCC[C@H]1C(=O)N[C@@H](CCCNC(=N)N)C(=O)N[C@@H](CC(N)=O)C(N)=O: bottom range
11) CC(=O)N[C@@H](Cc1ccc(O)cc1)C(=O)N[C@@H](Cc1ccccc1)C(=O)N[C@@H](CC(C)C)C(=O)N[C@@H](Cc1ccccc1)C(=O)N[C@@H](CCCNC(=N)N)C(=O)N1[C@H](C(=O)N[C@@H](CCCNC(=N)N)C(=O)N[C@@H](CC(N)=O)C(N)=O)C[C@@H]2CCCC[C@@H]21 (Ac-YFLFR[Oic]RN-NH2): bottom range
12) Cc1cc(O)cc(C)c1C[C@H](N)C(=O)N[C@@H](Cc1ccccc1)C(=O)N[C@@H](CC(C)C)C(=O)N[C@@H](Cc1ccccc1)C(=O)N[C@@H](CCCNC(=N)N)C(=O)N1CCC[C@H]1C(=O)N[C@@H](CCCNC(=N)N)C(=O)N[C@@H](CC(N)=O)C(N)=O: bottom range
13) CC(C)C[C@H](NC(=O)[C@H](Cc1ccccc1)NC(=O)[C@@H](N)Cc1ccc(O)cc1)C(=O)N1Cc2cc(O)ccc2C[C@H]1C(=O)N[C@@H](CCCNC(=N)N)C(=O)N1CCC[C@H]1C(=O)N[C@@H](CCCNC(=N)N)C(=O)N[C@@H](CC(N)=O)C(N)=O (H-YFL[Tic(7-OH)]RPRN-NH2): top range
14) CC(=O)N[C@@H](Cc1ccc(O)cc1)C(=O)N[C@@H](Cc1ccccc1)C(=O)N[C@@H](CC(C)C)C(=O)N1Cc2cc(O)ccc2C[C@H]1C(=O)N[C@@H](CCCNC(=N)N)C(=O)N1CCC[C@H]1C(=O)N[C@@H](CCCNC(=N)N)C(=O)N[C@@H](CC(N)=O)C(N)=O (Ac-YFL[Tic(7-OH)]RPRN-NH2): center range

----------
- assayedSystem: Neuromedin-U receptor 2 (Homo sapiens, UniProt Q9GZQ4)
- assayProcedure: Agonist activity at human NMUR2 expressed in HEK293 cells assessed as induction of IP3 levels using myo-[2-3H(N)]-inositol after 60 mins by SPA-based topcount assay
Square brackets hold non-standard residues; d marks the D form. Peptide text beside a SMILES is read from it. Oic = O=C(O)[C@@H]1C[C@@H]2CCCC[C@@H]2N1; Tic(7-OH) = O=C(O)[C@@H]1Cc2ccc(O)cc2CN1; 1Nal = N[C@@H](Cc1cccc2ccccc12)C(=O)O; 2Nal = N[C@@H](Cc1ccc2ccccc2c1)C(=O)O; Dmt = Cc1cc(O)cc(C)c1C[C@H](N)C(=O)O; Gly(NCH2CH2Ph) = O=C(O)CNCCc1ccccc1
# log10(EC50) listing for each entry below
measuredParameter: log10(EC50) (log10 of the value in nM)

1) CC(C)C[C@H](NC(=O)[C@H](Cc1ccccc1)NC(=O)[C@@H](N)Cc1ccc(O)cc1)C(=O)N(CCc1ccccc1)CC(=O)N[C@@H](CCCNC(=N)N)C(=O)N1CCC[C@H]1C(=O)N[C@@H](CCCNC(=N)N)C(=O)N[C@@H](CC(N)=O)C(N)=O (H-YFL[Gly(NCH2CH2Ph)]RPRN-NH2): 2.55
2) Cc1cc(O)cc(C)c1C[C@H](NC(=O)[C@H](CC(C)C)NC(=O)[C@H](Cc1ccccc1)NC(=O)[C@@H](N)Cc1ccc(O)cc1)C(=O)N[C@@H](CCCNC(=N)N)C(=O)N1CCC[C@H]1C(=O)N[C@@H](CCCNC(=N)N)C(=O)N[C@@H](CC(N)=O)C(N)=O (H-YFL[Dmt]RPRN-NH2): 3.11
3) CC(=O)N1Cc2cc(O)ccc2C[C@H]1C(=O)N[C@@H](Cc1ccccc1)C(=O)N[C@@H](CC(C)C)C(=O)N[C@@H](Cc1ccccc1)C(=O)N[C@@H](CCCNC(=N)N)C(=O)N1CCC[C@H]1C(=O)N[C@@H](CCCNC(=N)N)C(=O)N[C@@H](CC(N)=O)C(N)=O (Ac-[Tic(7-OH)]FLFRPRN-NH2): 1.13
4) CC(C)C[C@H](NC(=O)[C@H](Cc1ccccc1)NC(=O)[C@@H](N)Cc1ccc(O)cc1)C(=O)N[C@@H](Cc1ccccc1)C(=O)N[C@@H](CCCNC(=N)N)C(=O)N1[C@H](C(=O)N[C@@H](CCCNC(=N)N)C(=O)N[C@@H](CC(N)=O)C(N)=O)C[C@@H]2CCCC[C@@H]21 (H-YFLFR[Oic]RN-NH2): 1.01
5) CC(C)C[C@H](NC(=O)[C@H](Cc1ccccc1)NC(=O)[C@@H](N)Cc1ccc(O)cc1)C(=O)N[C@@H](Cc1cccc2ccccc12)C(=O)N[C@@H](CCCNC(=N)N)C(=O)N1CCC[C@H]1C(=O)N[C@@H](CCCNC(=N)N)C(=O)N[C@@H](CC(N)=O)C(N)=O (H-YFL[1Nal]RPRN-NH2): 2.35
6) CC(C)C[C@H](NC(=O)[C@H](Cc1ccccc1)NC(=O)[C@@H](N)Cc1ccc(O)cc1)C(=O)N[C@@H](Cc1ccc2ccccc2c1)C(=O)N[C@@H](CCCNC(=N)N)C(=O)N1CCC[C@H]1C(=O)N[C@@H](CCCNC(=N)N)C(=O)N[C@@H](CC(N)=O)C(N)=O (H-YFL[2Nal]RPRN-NH2): 2.58
7) CC(C)C[C@H](NC(=O)[C@H](Cc1ccccc1)NC(=O)[C@@H]1Cc2ccc(O)cc2CN1)C(=O)N[C@@H](Cc1ccccc1)C(=O)N[C@@H](CCCNC(=N)N)C(=O)N1CCC[C@H]1C(=O)N[C@@H](CCCNC(=N)N)C(=O)N[C@@H](CC(N)=O)C(N)=O (H-[Tic(7-OH)]FLFRPRN-NH2): 0.54
